Provenance of the data: PubChem BioAssay (NCI)

Test system: HCT-116 colon
Experiment: NCI tumour cell line growth inhibition, 48 h; in the data active = GI50 below about 0.43 µM; inactive = the rest
Use one of these outcomes when replying: active, inactive

Answered examples (8):
{"Compound": "Cc1cccc2c(=O)c3c(sc12)c(NCCCN)nc1ccccc13", "Classification": "inactive"}
{"Compound": "COc1ccc(NC(=O)c2ccc(C(F)(F)F)nc2Nc2ccc(Cl)cc2C)cc1Cl", "Classification": "inactive"}
{"Compound": "C[N+]1(CCNP(=S)(NCC[N+]2(C)Cc3c(ccc4c3OCO4)C3C2c2cc4c(cc2C[C@@H]3O)OCO4)NCC[N+]2(C)Cc3c(ccc4c3OCO4)C3C2c2cc4c(cc2C[C@@H]3O)OCO4)Cc2c(ccc3c2OCO3)C2C1c1cc3c(cc1C[C@H]2O)OCO3 (stereo partly drawn)", "Classification": "inactive"}
{"Compound": "COc1ccc(-c2c(NC(=O)Nc3ccc(Cl)c(C(F)(F)F)c3)cnn2-c2ccc(S(N)(=O)=O)cc2)cc1", "Classification": "inactive"}
{"Compound": "C=C(C)[C@@H]1C/C=C(/COC(C)=O)CC[C@H]2O[C@@]2(C)CC/C=C(\\C)CC1", "Classification": "inactive"}
{"Compound": "NC(CCl)=NCC12CC3CC(CC(C3)C1)C2", "Classification": "active"}
{"Compound": "OCC#Cc1ccccc1C#Cc1ccc(C#Cc2ccccc2C#CCO)cc1", "Classification": "inactive"}
{"Compound": "CCCCCCCC(=O)Nc1nc2[nH]c(CN3CCN(Cc4cccc(I)c4)CC3)c(CN3CCN(Cc4cccc(I)c4)CC3)c2c(=O)[nH]1", "Classification": "inactive"}

Q: Could you please tell me the result logged for `O=C(N/N=C/c1ccc([N+](=O)[O-])cc1)c1ccccc1Nc1ccnc(C(F)(F)F)c1` in this assay?
A: inactive

Q: Could you please tell me the result logged for CN1C(c2ccccc2)CC(=NO)CC1c1ccccc1 (stereo not drawn) in this assay?
A: inactive

Q: Could you please tell me the result logged for `C=C[C@@H]1CCC/C=C/[C@@H]2C[C@H](O)C[C@H]2[C@H](O)/C=C/C(=O)O1` in this assay?
A: inactive

Q: Could you please tell me the result logged for `COc1ccc2c(c1)/C(=C\c1c(-c3ccccc3)nc3sccn13)C(=O)N2` in this assay?
A: inactive

Q: Could you please tell me the result logged for `C#Cc1cccc(Nc2nc(C)nc3cc(NC(=O)CCl)ccc23)c1` in this assay?
A: inactive
